# Target under test: T1, human CTLA-4 (human, UniProt P16410 36-223)
# T1 construct: whole, on cells; CHO cells stably expressing huCTLA4; also called huCTLA4
# T1 sequence (P16410 36-223): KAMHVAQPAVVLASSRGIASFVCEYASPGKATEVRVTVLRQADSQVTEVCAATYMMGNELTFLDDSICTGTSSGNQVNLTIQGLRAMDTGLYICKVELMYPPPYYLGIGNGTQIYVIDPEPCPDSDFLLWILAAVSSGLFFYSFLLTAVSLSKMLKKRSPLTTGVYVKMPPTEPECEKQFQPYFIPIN
# Assay summary: flow cytometry, CHO cells stably expressing huCTLA-4, 33.3 nM Fc fusion, PE anti-human Fc
Measure name: MFI at 33.3 nM

* variant CD80 IgV-Fc (inert) H18V/A26G/E35D/M47V/V68M/A71G/D90G (Fc fusion, not shown: inert human IgG1 Fc) VIHVTKEVKEVATLSCGVNVSVEELGQTRIYWQKDKKMVLTMMSGDVNIWPEYKNRTIFDITNNLSIMILGLRPSDEGTYECVVLKYEKGAFKREHLAEVTLSVKAD | 25400 MFI
* variant CD80 IgV-Fc (inert) H18Y/E35D/M47V/V68M/A71G (Fc fusion, Fc fusions are dimeric by the general description; not shown: inert human IgG1 Fc) VIHVTKEVKEVATLSCGYNVSVEELAQTRIYWQKDKKMVLTMMSGDVNIWPEYKNRTIFDITNNLSIMILGLRPSDEGTYECVVLKYEKDAFKREHLAEVTLSVKAD | 23600 MFI
* variant CD80 IgV-Fc (inert) H18V/A26K/E35D/M47L/V68M/A71G (Fc fusion, not shown: inert human IgG1 Fc) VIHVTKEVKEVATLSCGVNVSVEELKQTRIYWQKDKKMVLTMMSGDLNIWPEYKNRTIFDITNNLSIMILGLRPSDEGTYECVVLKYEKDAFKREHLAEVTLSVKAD | 22900 MFI
